- target-system: GFP-OhyA (Staphylococcus aureus, UniProt Q2G1P3, M1A)
- test-summary: biochemical
endpoint-name: pKd
Lab note — pKd values are minus log10 of concentrations in M.

Need pKd, item CCCCCCCC/C=C\CCCCCCCC(=O)OC[C@H](COP(=O)(O)OCC(O)CO)OC(=O)CCCCCCC/C=C\CCCCCCCC (stereo partly shown)
7.10
